Would you mind telling me the reported Ht of each entry?
Species: Rattus norvegicus
Test: Open TG-GATES - Regimen: Daily Repeat
Format: toxicity, organism-based, Sprague-Dawley
Design: regimen Daily Repeat, gender Male, age 6 weeks
Details: in vivo, po, 100 mg/kg, […], tissue Blood, route gavage, dose level Low, time 28 day
Give bare numbers, in %.

compound: CCOc1ccc(NC(=O)CC(C)O)cc1 (stereo not given)
Ht / %: 44.9

Quick one: give me Ht for each item below, same order please.
1. COc1ccc2[nH]c([S+]([O-])Cc3ncc(C)c(OC)c3C)nc2c1 (stereo not given)
2. NC(N)=Nc1nc(CSCCC(N)=NS(N)(=O)=O)cs1
3. CCOC(=O)CCC(=O)O[C@H]1[C@H](O[C@@H]2[C@@H](C)[C@H](O[C@H]3C[C@@](C)(OC)[C@@H](O)[C@H](C)O3)[C@@H](C)C(=O)O[C@H](CC)[C@@](C)(O)[C@H](O)[C@@H](C)C(=O)[C@H](C)C[C@@]2(C)O)O[C@H](C)C[C@@H]1N(C)C [ERYTHROMYCIN ETHYLSUCCINATE]
4. COC1=CC(=O)C[C@@H](C)[C@]12Oc1c(Cl)c(OC)cc(OC)c1C2=O

Response:
1. 43.9
2. 43.7
3. 43.9
4. 44.1

###

Species: Rattus norvegicus
Experiment: Open TG-GATES - Regimen: Single
Format: toxicity, organism-based, Sprague-Dawley
Design: regimen Single, gender Male, age 6 weeks
Settings: in vivo, po, 30 mg/kg, 24 h, tissue Blood, route gavage, dose level Middle
experimental endpoint: PT (s)
One number for each entry, in s.

Quick one: give me PT for each item below, same order please.
1. CC1=C(/C=C/C(C)=C/C=C/C(C)=C/CO)C(C)(C)CCC1
2. CN(C)CCCN1c2ccccc2CCc2ccccc21
3. CN(C)CCN(Cc1cccs1)c1ccccn1
4. CN(C)CCCN1c2ccccc2CCc2ccc(Cl)cc21

Response:
[15.9, 16.5, 16.8, 13.8]

###

Would you mind telling me the reported KIDNEY_R of each entry?
Species on record: Rattus norvegicus
Test: Open TG-GATES - Regimen: Daily Repeat
Assay type: toxicity, organism-based, Sprague-Dawley
Parameters: regimen Daily Repeat, gender Male, age 6 weeks
Conditions: in vivo, po, 10 mg/kg, […], tissue Kidney, route gavage, dose level Low, time 14 day
Numbers only, in g.

Reference set (3 entries):
molecule: CN(C)CCCN1c2ccccc2CCc2ccccc21 [IMIPRAMINE]
unit tag: g
KIDNEY_R: 1.2
//
molecule: CN(C)CCN(Cc1cccs1)c1ccccn1
unit tag: g
KIDNEY_R: 1.2
//
molecule: CC(C)OC(=O)C(C)(C)Oc1ccc(C(=O)c2ccc(Cl)cc2)cc1 [FENOFIBRATE]
unit tag: g
KIDNEY_R: 1.3

// moving on: another record for KIDNEY_R
Request: Give a short answer stating reported KIDNEY_R for CC1=C(/C=C/C(C)=C/C=C/C(C)=C/CO)C(C)(C)CCC1 [RETINOL] .
Response: 1.2

###

Species on record: Rattus norvegicus
Test: Open TG-GATES - Regimen: Daily Repeat
Assay type: toxicity, organism-based, Sprague-Dawley
Set-up: regimen Daily Repeat, gender Male, age 6 weeks
Details: in vivo, po, 0 mg/kg, […], tissue Blood, route gavage, dose level Control, time 14 day
experimental endpoint: Fbg (mg/dL)
Give bare numbers, in mg/dL.

Reference set (6 entries):
compound: CN(C)CCCN1c2ccccc2CCc2ccccc21
unit tag: mg/dL
Fbg: 279.4
--
compound: CCCNC(=O)NS(=O)(=O)c1ccc(Cl)cc1 [CHLORPROPAMIDE]
unit tag: mg/dL
Fbg: 274
--
compound: COC1=CC(=O)C[C@@H](C)[C@]12Oc1c(Cl)c(OC)cc(OC)c1C2=O
unit tag: mg/dL
Fbg: 226.2
--
compound: CN(C)CCN(Cc1cccs1)c1ccccn1
unit tag: mg/dL
Fbg: 303.8
--
compound: NNC(=O)c1ccncc1
unit tag: mg/dL
Fbg: 224.2
--
compound: COc1ccc2[nH]c([S+]([O-])Cc3ncc(C)c(OC)c3C)nc2c1 (stereo not drawn)
unit tag: mg/dL
Fbg: 215.4

Quick one: give me Fbg for each item below, same order please.
1. CC1=C(/C=C/C(C)=C/C=C/C(C)=C/CO)C(C)(C)CCC1
2. CN1C(=O)CN=C(c2ccccc2)c2cc(Cl)ccc21
3. CC(C)OC(=O)C(C)(C)Oc1ccc(C(=O)c2ccc(Cl)cc2)cc1 [FENOFIBRATE]
4. CCOC(=O)CCC(=O)O[C@H]1[C@H](O[C@@H]2[C@@H](C)[C@H](O[C@H]3C[C@@](C)(OC)[C@@H](O)[C@H](C)O3)[C@@H](C)C(=O)O[C@H](CC)[C@@](C)(O)[C@H](O)[C@@H](C)C(=O)[C@H](C)C[C@@]2(C)O)O[C@H](C)C[C@@H]1N(C)C [ERYTHROMYCIN ETHYLSUCCINATE]
5. NC(N)=Nc1nc(CSCCC(N)=NS(N)(=O)=O)cs1

Response:
1: 312; 2: 234; 3: 309.8; 4: 317.8; 5: 229.4

Quick one: give me Fbg for each item below, same order please.
1. CCOc1ccc(NC(=O)CC(C)O)cc1 (stereo not drawn)
2. O=C(CCCN1CCC(O)(c2ccc(Cl)cc2)CC1)c1ccc(F)cc1

Response:
1. 321.4
2. 224.2
